Hey, just so you know, these numbers are from patent US20250236589A1.

test.protocol: PK profile in Wistar rats (plasma, brain, urine)
Format: in vivo, rat
condition.summary: male, Wistar, rat; plasma; IV 1 mg/kg
readout.name: AUC(0-t) (ng·h/mL)

{"structure.smiles": "COc1cc(SC(F)(F)F)c(OC)cc1CCN", "unit.abbreviation": "ng·h/mL", "measured.number": 42.2}

* * *

system.tested: UniProt P41595
Sequence (P41595 whole entry, looked up): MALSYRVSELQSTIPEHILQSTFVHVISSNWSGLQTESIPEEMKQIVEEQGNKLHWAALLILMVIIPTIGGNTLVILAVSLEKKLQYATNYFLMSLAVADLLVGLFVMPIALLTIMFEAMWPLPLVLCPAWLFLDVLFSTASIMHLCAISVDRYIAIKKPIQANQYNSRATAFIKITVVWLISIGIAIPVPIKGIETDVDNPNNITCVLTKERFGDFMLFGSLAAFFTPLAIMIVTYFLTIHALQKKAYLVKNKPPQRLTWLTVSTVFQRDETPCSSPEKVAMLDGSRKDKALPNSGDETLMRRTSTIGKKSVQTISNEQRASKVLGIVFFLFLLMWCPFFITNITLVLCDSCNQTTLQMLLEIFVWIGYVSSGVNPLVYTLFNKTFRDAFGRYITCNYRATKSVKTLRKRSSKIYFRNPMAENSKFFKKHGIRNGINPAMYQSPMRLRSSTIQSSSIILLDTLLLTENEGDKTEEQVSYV
test.protocol: 5-HT2B radioligand binding ([125I](±)DOI)
condition.summary: radioligand [125I](±)DOI; read-out: 5-HT2B, Ki

{"structure.smiles": "COc1cc(SC(F)(F)F)c(OC)cc1CCN", "Ki, nM": 6.7}

* * *

test.protocol: PK in Sprague-Dawley rats (plasma, brain, CSF)
Assay type: in vivo, rat
condition.summary: male, Sprague-Dawley, rat; brain; IV 1 mg/kg
readout.name: MRT inf (h)

{"molecule": "COc1cc(SC(F)(F)F)c(OC)cc1CCN [Compound I-1]", "measured.number": 1.98}

* * *

test.protocol: PK profile in Wistar rats (plasma, brain, urine)
Type: in vivo, rat
condition.summary: male, Wistar, rat, brain, iv, 1 mg/kg; IV 1 mg/kg

{"molecule": "COc1cc(SC(F)(F)F)c(OC)cc1CCN [Compound I-1]", "Tmax (min)": 30}

* * *

We begin with a simple list: items and their reported pEC50.
system.tested: 5-HT2C receptor (Homo sapiens (Human), UniProt P28335)
Sequence (P28335 whole entry, looked up): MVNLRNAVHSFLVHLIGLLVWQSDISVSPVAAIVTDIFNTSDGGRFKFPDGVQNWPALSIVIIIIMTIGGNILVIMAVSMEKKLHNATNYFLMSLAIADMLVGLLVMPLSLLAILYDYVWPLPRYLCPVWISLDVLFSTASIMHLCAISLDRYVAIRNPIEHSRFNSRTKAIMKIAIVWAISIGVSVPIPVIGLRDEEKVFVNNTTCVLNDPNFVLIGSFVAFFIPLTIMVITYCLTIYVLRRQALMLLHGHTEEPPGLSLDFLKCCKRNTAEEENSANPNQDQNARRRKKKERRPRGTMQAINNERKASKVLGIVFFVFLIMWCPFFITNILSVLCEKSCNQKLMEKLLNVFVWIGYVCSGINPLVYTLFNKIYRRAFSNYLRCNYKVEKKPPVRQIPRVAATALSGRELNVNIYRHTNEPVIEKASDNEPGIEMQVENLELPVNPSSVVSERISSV
test.protocol: 5-HT2C functional assay, IP1 (IPOne)
Type: cell-based
pEC50: −log10 of the molar value.
readout.name: pEC50

{"molecule": "COc1cc(SC(F)(F)F)c(OC)cc1CCN", "system.tested": "5-HT2C receptor (Homo sapiens (Human), UniProt P28335)", "readout.name": "pEC50", "measured.number": 8.14}
{"molecule": "COc1cc(CC(C)N)c(OC)cc1I (racemic) [DOI, (±)-2,5-dimethoxy-4-iodoamphetamine, reference compound]", "system.tested": "5-HT2C receptor (Homo sapiens (Human), UniProt P28335)", "readout.name": "pEC50", "measured.number": 8.10}

* * *

system.tested: 5-HT2A receptor (Homo sapiens (Human))
test.protocol: 5-HT2A radioligand competition binding ([3H]LSD or [3H]ketanserin)
condition.summary: read-out: 5-HT2AR affinity (Ki)

{"structure.smiles": "COc1cc(SC(F)(F)F)c(OC)cc1CCNCC1CC1", "unit.abbreviation": "nM", "Ki": 10}

* * *

test.protocol: In vitro liver microsome stability (RLM)
Type: in vitro ADME
condition.summary: rat, rat liver microsomes, 0.5 mg/mL microsomes, NADPH, read-out: RLM, t1/2
# half-life at 1 μM listing for each entry below

{"compound": "[2H]C([2H])(N)Cc1cc(OC)c(SC)cc1OC", "half-life at 1 μM / min": 5.3}
{"compound": "[2H]C([2H])([2H])Oc1cc(C2CCCC2)c(OC([2H])([2H])[2H])cc1CCN", "half-life at 1 μM / min": 7.5}
{"compound": "[2H]C([2H])([2H])Oc1cc(SC)c(OC([2H])([2H])[2H])cc1CCN", "half-life at 1 μM / min": 5.7}
{"compound": "[2H]C([2H])([2H])C(c1cc(OC)c(CCN)cc1OC)(C([2H])([2H])[2H])C([2H])([2H])[2H]", "half-life at 1 μM / min": 2.5}
{"compound": "COc1cc(C(F)(F)F)c(OC)cc1CCN [Reference Compound 4, reference compound]", "half-life at 1 μM / min": 7.7}
{"compound": "[2H]C([2H])(N)Cc1cc(OC)c(C(F)(F)F)cc1OC", "half-life at 1 μM / min": 11.1}
{"compound": "COc1cc(SC)c(OC)cc1CCN [Reference Compound 3, reference compound]", "half-life at 1 μM / min": 5.2}
{"compound": "[2H]C([2H])([2H])Oc1cc(SC(F)(F)F)c(OC([2H])([2H])[2H])cc1CCN", "half-life at 1 μM / min": 59.3}
{"compound": "COc1cc(C(C)(C)C)c(OC)cc1CCN", "half-life at 1 μM / min": 2.4}

* * *

test.protocol: PK profile in Wistar rats (plasma, brain, urine)
Type: in vivo, rat
condition.summary: male, Wistar, rat; brain; IV 1 mg/kg

{"molecule": "COc1cc(SC(F)(F)F)c(OC)cc1CCN [Compound I-1]", "MRT last / h": 2.54}

* * *

test.protocol: PK in Sprague-Dawley rats (plasma, brain, CSF)
Type: in vivo, rat
condition.summary: male, Sprague-Dawley, rat; plasma; IV 1 mg/kg
readout.name: half-life

{"compound": "COc1cc(SC(F)(F)F)c(OC)cc1CCN [Compound I-1]", "result": "1.53 h"}

* * *

test.protocol: PK profile in C57BL/6J mice (plasma, brain)
Format: in vivo, mouse
condition.summary: male, C57BL/6J, mouse, po; plasma; p.o. 3 mg/kg
readout.name: Tmax (h)

{"structure.smiles": "COc1cc(SC(F)(F)F)c(OC)cc1CCN", "measured.number": 1}

* * *

system.tested: 5-HT2A receptor (Homo sapiens (Human), UniProt P28223)
test.protocol: 5-HT2A radioligand competition binding ([3H]LSD or [3H]ketanserin)
pKi: −log10 of the molar value.

{"structure.smiles": "[2H]C([2H])(N)Cc1cc(OC)c(SC)cc1OC", "system.tested": "5-HT2A receptor (Homo sapiens (Human), UniProt P28223)", "pKi": "< 6.82"}
{"structure.smiles": "[2H]C([2H])([2H])Oc1cc(C2CCCC2)c(OC([2H])([2H])[2H])cc1CCN", "system.tested": "5-HT2A receptor (Homo sapiens (Human), UniProt P28223)", "pKi": "< 6.82"}
{"structure.smiles": "COc1cc(OCCC(F)(F)F)c(OC)cc1CCN", "system.tested": "5-HT2A receptor (Homo sapiens (Human), UniProt P28223)", "pKi": "< 6.82"}

* * *

test.protocol: In vitro liver microsome stability (RLM)
Assay type: in vitro ADME
condition.summary: rat, rat liver microsomes, 0.5 mg/mL microsomes, NADPH, read-out: RLM, t1/2
readout.name: half-life at 1 μM

{"compound": "COc1cc(OCCC(F)F)c(OC)cc1CCN [Compound I-6]", "result": "> 2 h"}
{"compound": "COc1cc(OCCCF)c(OC)cc1CCN [Compound I-7]", "result": "> 2 h"}
{"compound": "COc1cc(OCCC(F)(F)F)c(OC)cc1CCN [Compound I-5]", "result": "> 2 h"}

* * *

Each entry below lists one item and its recorded 2A/2B EC50 Selectivity value.
system.tested: 5-HT2A receptor (Homo sapiens (Human), UniProt P28223)
test.protocol: 5-HT2A functional assay, IP1 (IPOne)
Format: cell-based
condition.summary: IP1 assay
readout.name: 2A/2B EC50 Selectivity

{"structure.smiles": "COc1cc(SC(F)(F)F)c(OC)cc1CCN", "system.tested": "5-HT2A receptor (Homo sapiens (Human), UniProt P28223)", "measured.number": 21.5}
{"structure.smiles": "COc1cc(SCC(F)(F)C(F)F)c(OC)cc1CCN", "system.tested": "5-HT2A receptor (Homo sapiens (Human), UniProt P28223)", "measured.number": 2.7}
{"structure.smiles": "COc1cc(SCCC(F)F)c(OC)cc1CCN", "system.tested": "5-HT2A receptor (Homo sapiens (Human), UniProt P28223)", "measured.number": 16}

* * *

List of Ki values.
system.tested: 5-HT2A receptor (Homo sapiens (Human), UniProt P28223)
test.protocol: 5-HT2A radioligand competition binding ([3H]LSD or [3H]ketanserin)

{"compound": "COc1cc(OCCC(F)F)c(OC)cc1CCN [Compound I-6]", "Ki": "> 150 nM"}
{"compound": "COc1cc(OCCCF)c(OC)cc1CCN [Compound I-7]", "Ki": "> 150 nM"}
{"compound": "[2H]C([2H])([2H])Oc1cc(SC)c(OC([2H])([2H])[2H])cc1CCN [II-1]", "Ki": "> 150 nM"}
